The measurements presented in this section are drawn from patent US4826994A.

Assay: Randall Selitto Test in the Rat (pain threshold in inflamed paw)
Format: in vivo, Male Sprague Dawley rats
Settings: Rattus norvegicus, po, rats, 1 hour after dosing; value in parentheses; read-out: Randall Selitto Test in the Rat, ED50 (dose which causes analgesia in 50% of the animals)
ED50 strictly under 0.2 mg/kg means Satisfied; at 0.2 mg/kg or over means Not satisfied.

For orientation, consider the following solved cases.
CCC1(CC(=O)O)OCC(Cc2ccccc2)c2c1[nH]c1c(C)cccc21 (single isomer, unassigned); Not satisfied
C=CCC1COC(CC)(CC(=O)O)c2[nH]c3c(C)c(Cl)ccc3c21 (single isomer, unassigned); Satisfied
CCC1(CC(=O)O)OCC(Cc2ccccc2)c2c1[nH]c1c(Cl)c(Cl)ccc21 (single isomer, unassigned); Not satisfied
CCC1(CC(=O)O)OCC(Cc2ccccc2)c2c1[nH]c1ccccc21 (single isomer, unassigned; isomer a); Satisfied
CCC1(CC(=O)O)OCC(Cc2ccccc2)c2c1[nH]c1c(C)c(Cl)ccc21 (single isomer, unassigned); Not satisfied

## Input Determine if C=CCC1COC(CC)(CC(=O)O)c2[nH]c3c(CCC)cccc3c21 (single isomer, unassigned) shows ED50 strictly lower than 0.2 mg/kg.
## Output Not satisfied

## Input In plain terms, does CCc1cccc2c3c([nH]c12)C(CC)(CC(=O)O)OCC3Cc1ccccc1 (single isomer, unassigned) come in under 0.2 mg/kg for ED50?
## Output Not satisfied
